All values here come from ChEMBL document CHEMBL1126583.

- STUDY TARGET: Glutamate NMDA receptor
- MEASUREMENT NOTES: Tested for binding affinity against NMDA receptor, from rat synaptic membrane, using [3H]TCP as the radioligand.
ATTRIBUTE MEASURED: IC50 (µM)

I = Cc1cc2nc(CC(N)C(=O)O)c(CP(=O)(O)O)nc2cc1C (centres undefined)
II = NC(Cc1nc2cc(Cl)ccc2nc1CP(=O)(O)O)C(=O)O (centres undefined)
Exercise: Input pair: I , II . Output: entry with lower IC50. Please identify the chosen entry by its label.
Key: II
(II: 8.6 µM, I: 16.4 µM)

I = NC(Cc1nc2ccc(Cl)cc2nc1CP(=O)(O)O)C(=O)O (centres undefined)
II = NC(Cc1nc2ccccc2nc1CP(=O)(O)O)C(=O)O (stereo in doubt; 9)
Exercise: Input pair: I , II . Output: entry with lower IC50. Please identify the chosen entry by its label.
Key: I

A = NC(Cc1nc2cc(Cl)c(Cl)cc2nc1CP(=O)(O)O)C(=O)O (centres undefined)
B = O=C(O)[C@@H]1C[C@H](CP(=O)(O)O)CCN1
Exercise: Input pair: A , B . Output: entry with lower IC50. Please identify the chosen entry by its label.
Key: A
